B1: TPR 5TU (parent)
chain: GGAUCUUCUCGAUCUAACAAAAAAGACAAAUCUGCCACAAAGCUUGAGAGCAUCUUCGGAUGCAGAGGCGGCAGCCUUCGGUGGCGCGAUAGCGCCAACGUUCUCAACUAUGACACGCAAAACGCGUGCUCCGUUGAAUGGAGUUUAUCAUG

Variants of: B1
Assay: polymerase ribozyme fitness, log enrichment relative to wild type (log ratio); higher = more active; in vitro selection for triplet polymerase activity
Variants at the floor of the assay were thinned out.
Each entry below carries its reported polymerase ribozyme fitness (log ratio).
Enter a number only.

Example entries begin here.
variant_descriptor	assay_value
A89G C95A G136U	-3.75
C79G U134C U146C	-4.11
C93G C108G C116G G133C	-3.85
C57A A98G C123G U145G	0.398
A16C G83U	-1.56
C116U U145C U148C	-2.77

With those in mind, consider the next variant.
Q: Look up polymerase ribozyme fitness (log ratio): C57G C69A
Result: -2.56
